Where do the numbers come from? From ChEMBL document CHEMBL1132987.

- method_notes: Area under curve (AUC) was determined after intravenous administration of compound as Bis(N-methyl-D-glucamine) salt in dog at a dose of 32 mg/Kg
- Type: ADME, organism-based, Canis lupus familiaris
- condition_info: in vivo
measured_quantity: AUC (µg·h/mL)

>>> result_number("C[C@@H](O[C@H]1OCCN(Cc2n[nH]c(=O)[nH]2)[C@H]1c1ccc(F)cc1)c1cc(C(F)(F)F)cc(C(F)(F)F)c1 [APREPITANT]")
370
